Recorded conversion to 1,5-cz-[Ln(Lig)], Lu^III for the following compounds
- assay_comment: Formation of 1,5-cz-[Ln(Lig)] from Lig and Ln^III ions (metal dependent click-zip), MOPS/NaOH buffer pH 7.0, analytical HPLC (Charts 1, 2)
- test_conditions: Lu^III; after 1 week at 80° C.; MOPS/NaOH buffer pH 7.0
# unit: % | format: bare number

Req: Tell me measured conversion to 1,5-cz-[Ln(Lig)], Lu^III for C#Cc1cccc(CN2CCN(CC(=O)O)CCN(Cc3cccc(CN=[N+]=[N-])n3)CCN(CC(=O)O)CC2)n1 please.
Resp: 95

Req: Supply reported conversion to 1,5-cz-[Ln(Lig)], Lu^III belonging to this compound: C#Cc1cccc(CN2CCN(CC(=O)O)CCN(Cc3cc(C(=O)OC(C)C)cc(CN=[N+]=[N-])n3)CCN(CC(=O)O)CC2)n1
Resp: 0

Req: Recall and state the measured conversion to 1,5-cz-[Ln(Lig)], Lu^III for C#Cc1cccc(CN2CCN(CC(=O)O)CCN(Cc3cccc(CN=[N+]=[N-])n3)CCN(CP(=O)(O)O)CC2)n1 .
Resp: 93
